# experiment: In vivo pharmacokinetic experiment in CD-1 female mice, intravenous
# assay_setup: mouse, 2 mg/kg, CD-1 mice, 2 mpk, plasma
Kindly supply the reported half-life values for the records listed here.
Numbers only, in h.

Example entries and their recorded answers appear below.
- molecule: "NS(=O)(=O)OC[C@H]1[C@H](F)[C@@H](Nc2ncncc2C(=O)c2cc3c(s2)CC[C@]32NCCc3ccc(Cl)cc32)C[C@@H]1O [Compound 132]"
  measured_quantity: "half-life"
  obs_value: 3.48
- molecule: "NS(=O)(=O)OC[C@H]1[C@H](F)[C@@H](Nc2ncncc2C(=O)c2cc3c(s2)CCC[C@]32NCCc3ccc(Cl)cc32)C[C@@H]1O [Compound 90]"
  measured_quantity: "half-life"
  obs_value: 4.73

Lab note: each molecule below needs its half-life filled in.
1. NS(=O)(=O)OC[C@H]1[C@H](F)[C@@H](Nc2ncncc2C(=O)c2cc3c(s2)C=C[C@]32NCCc3ccc(Cl)cc32)C[C@@H]1O [Compound 344]
2. NS(=O)(=O)OC[C@H]1[C@H](F)[C@@H](Nc2ncncc2C(=O)c2cc3c(s2)CCC[C@]32NCCc3ccc(F)cc32)C[C@@H]1O [Compound 93]

Reply:
1. 1.48
2. 1.88

---

# system_tested: SAE (Homo sapiens, UniProt Q9UBT2)
# Construct: endogenous in cells; host or cells: HCT116
# Sequence (Q9UBT2 1-640): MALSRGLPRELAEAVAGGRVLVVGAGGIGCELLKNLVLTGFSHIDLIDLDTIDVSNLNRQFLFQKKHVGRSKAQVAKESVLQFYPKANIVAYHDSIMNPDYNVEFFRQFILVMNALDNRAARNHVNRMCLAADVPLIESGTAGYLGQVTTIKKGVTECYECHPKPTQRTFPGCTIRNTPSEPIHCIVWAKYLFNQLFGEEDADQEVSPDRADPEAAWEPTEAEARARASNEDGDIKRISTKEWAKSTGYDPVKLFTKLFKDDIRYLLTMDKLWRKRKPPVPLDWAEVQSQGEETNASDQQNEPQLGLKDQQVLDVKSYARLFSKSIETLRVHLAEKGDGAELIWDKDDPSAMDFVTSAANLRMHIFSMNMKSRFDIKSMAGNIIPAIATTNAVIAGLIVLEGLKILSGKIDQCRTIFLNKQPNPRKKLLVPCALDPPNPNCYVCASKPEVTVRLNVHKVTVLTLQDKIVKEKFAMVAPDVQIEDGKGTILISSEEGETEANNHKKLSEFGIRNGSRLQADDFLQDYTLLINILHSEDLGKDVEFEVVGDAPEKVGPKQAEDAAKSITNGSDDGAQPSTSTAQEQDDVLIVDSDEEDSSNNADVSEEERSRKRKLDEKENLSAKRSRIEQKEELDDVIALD
# Sequence (Q9UBE0 1-346): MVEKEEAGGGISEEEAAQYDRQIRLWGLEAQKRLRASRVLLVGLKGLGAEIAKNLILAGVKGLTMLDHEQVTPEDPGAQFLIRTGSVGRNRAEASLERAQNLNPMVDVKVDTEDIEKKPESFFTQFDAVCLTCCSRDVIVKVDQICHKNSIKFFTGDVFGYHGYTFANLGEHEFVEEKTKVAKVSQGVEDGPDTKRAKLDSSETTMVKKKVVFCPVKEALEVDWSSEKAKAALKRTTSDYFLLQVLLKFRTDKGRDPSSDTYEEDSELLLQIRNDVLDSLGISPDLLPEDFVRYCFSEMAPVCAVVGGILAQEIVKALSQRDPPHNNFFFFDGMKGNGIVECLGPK
# experiment: SUMO IF: in vitro inhibitory activity assay against SAE in HCT116 cells (SUMO-2/3 immunofluorescence)
# Format: cell-based
# assay_setup: class symbols, 6 h at 37° C.
Exercise: state measured IC50 for each of the compounds provided.

Solved cases (5 shown):
- compound: "NS(=O)(=O)OC[C@H]1[C@H](F)[C@@H](Nc2ncncc2C(=O)c2cc3c(s2)COCC32NCCc3c(F)cc(Cl)cc32)C[C@@H]1O (some centres unmarked) [Compound 573]"
  IC50: "50 to 200 nM"
- compound: "NS(=O)(=O)OC[C@H]1[C@H](F)[C@@H](Nc2ncncc2C(=O)c2cc3c(s2)CCC[C@]32NC3(CC3)Cc3ccc(Cl)cc32)C[C@@H]1O [Compound 684]"
  IC50: "50 to 200 nM"
- compound: "NS(=O)(=O)OC[C@H]1[C@H](F)[C@@H](Nc2ncncc2C(=O)c2cc3c(s2)CCC[C@]32NCCc3cc(F)c(F)cc32)C[C@@H]1O [Compound 670]"
  IC50: "≤ 50 nM"
- compound: "NS(=O)(=O)OC[C@H]1[C@H](F)[C@@H](Nc2ncncc2C(=O)c2cc3c(s2)CN(C2CC2)CC32OCCc3ccc(F)cc32)C[C@@H]1O (some centres unmarked) [Compound 738]"
  IC50: "50 to 200 nM"
- compound: "NS(=O)(=O)OC[C@H]1[C@H](F)[C@@H](Nc2ncncc2C(=O)c2cc3c(s2)CNCC32NCCc3ccc(Cl)cc32)C[C@@H]1O (some centres unmarked) [Compound 582]"
  IC50: "50 to 200 nM"

Below are 7 compounds. Give each one its IC50.
1. NS(=O)(=O)OC[C@H]1[C@H](F)[C@@H](Nc2ncncc2C(=O)c2cc3c(s2)CCC32NCCc3ccncc32)C[C@@H]1O (some centres unmarked) [Compound 160]
2. CC(C)N1Cc2sc(C(=O)c3cncnc3N[C@H]3C[C@H](O)[C@@H](COS(N)(=O)=O)[C@@H]3F)cc2[C@]2(C1)OCCc1ccc(Cl)cc12 [Compound 737]
3. NS(=O)(=O)OC[C@H]1[C@H](F)[C@@H](Nc2ncncc2C(=O)c2cc3c(s2)COC[C@]32NCCc3cc(F)c(Cl)cc32)C[C@@H]1O [Compound 572]
4. [2H]C1([2H])CNC2(CCCc3sc(C(=O)c4cncnc4N[C@H]4C[C@H](O)[C@@H](COS(N)(=O)=O)[C@@H]4F)cc32)c2cc(Cl)ccc21 (some centres unmarked) [Compound 663]
5. COc1ccc2c(c1)C(c1cc(C(=O)c3cncnc3N[C@H]3C[C@H](O)[C@@H](COS(N)(=O)=O)[C@@H]3F)sc1C)NCC2 (some centres unmarked) [Compound 243]
6. NS(=O)(=O)OC[C@H]1[C@H](F)[C@@H](Nc2ncncc2C(=O)c2cc3c(s2)CC[C@]32NCCc3cc(Cl)c(Cl)cc32)C[C@@H]1O [Compound 693]
7. NS(=O)(=O)OC[C@H]1[C@H](F)[C@@H](Nc2ncncc2C(=O)c2cc3c(s2)CCC32NCCc3ccc(C(F)(F)F)cc32)C[C@@H]1O (some centres unmarked) [Compound 151]

Reply:
1. 50 to 200 nM
2. ≤ 50 nM
3. 50 to 200 nM
4. ≤ 50 nM
5. > 200 nM
6. ≤ 50 nM
7. 50 to 200 nM

I would be grateful if you could provide IC50 for each of the following entries.
1. NS(=O)(=O)CC[C@H]1[C@H](F)[C@@H](Nc2ncncc2C(=O)c2cc3c(s2)C=C[C@]32NCCc3ccc(Cl)cc32)C[C@@H]1O [Compound 640]
2. Cc1sc(C(=O)c2cncnc2N[C@H]2C[C@H](O)[C@@H](COS(N)(=O)=O)[C@H]2F)cc1C1NCCc2cc(Cl)c(Cl)cc21 (some centres unmarked) [Compound 247]

Reply:
1. 50 to 200 nM
2. 50 to 200 nM

Provide reported IC50 for each item, in the same order as listed.
1. NS(=O)(=O)OC[C@H]1[C@H](F)[C@@H](Nc2ncncc2C(=O)c2cc3c(s2)C(=O)CC32NCCc3ccc(Cl)cc32)C[C@@H]1O (some centres unmarked) [Compound 630]
2. NS(=O)(=O)OC[C@H]1[C@H](F)[C@@H](Nc2ncncc2C(=O)c2cc3c(s2)C=CC32OCCc3ccc(Cl)cc32)C[C@@H]1O (some centres unmarked) [Compound 759]
3. NS(=O)(=O)CC[C@H]1[C@H](F)[C@@H](Nc2ncncc2C(=O)c2cc3c(s2)C=C[C@@]32NCCc3ccc(Cl)cc32)C[C@@H]1O [Compound 639]
4. NS(=O)(=O)OC[C@H]1[C@H](F)[C@@H](Nc2ncncc2C(=O)c2cc3c(s2)CCC[C@@]32OCCc3ccc(Cl)cc32)C[C@@H]1O [Compound 685]
5. NS(=O)(=O)OC[C@H]1[C@H](F)[C@@H](Nc2ncncc2C(=O)c2cc3c(s2)CCC32NCCc3ccc(F)cc32)C[C@@H]1O (some centres unmarked) [Compound 133]
6. NS(=O)(=O)OC[C@H]1[C@H](F)[C@@H](Nc2ncncc2C(=O)c2cc3c(s2)CCC32NCCc3cc(Cl)ncc32)C[C@@H]1O (some centres unmarked) [Compound 161]
7. NS(=O)(=O)OC[C@H]1[C@H](F)[C@@H](Nc2ncncc2C(=O)c2cc3c(s2)CC[C@]32OCCc3ccc(Cl)cc32)C[C@@H]1O [Compound 707]
8. Cc1sc(C(=O)c2cncnc2N[C@H]2C[C@H](O)[C@@H](CCS(N)(=O)=O)[C@@H]2F)cc1[C@@H]1NCCc2ccc(Cl)cc21 [Compound 991]

Reply:
["50 to 200 nM", "≤ 50 nM", "> 200 nM", "> 200 nM", "50 to 200 nM", "50 to 200 nM", "≤ 50 nM", "50 to 200 nM"]

Task item: What value of measured IC50 is listed for NS(=O)(=O)OC[C@H]1[C@H](F)[C@@H](Nc2ncncc2C(=O)c2cc3c(s2)COC[C@]32NCCc3ccccc32)C[C@@H]1O [Compound 99] ?
Reply: 50 to 200 nM
